Recorded IC50 values for a group of compounds are listed next.
test system: MCF7; experiment: Cytotoxicity against human MCF7 cells after 24 hrs by MTT assay; assay type: functional, cell-based; details: MCF7, 24 h
Just the number please, in nM, no unit attached.

INSERT INTO measurements (compound, output_unit, observed_result) VALUES
  ('CC(C)CCCCCC1CC(=O)N[C@H](C)C(=O)N[C@H](C)C(=O)NC(CC(C)C)C(=O)N2CCC[C@H]2C(=O)NC(CC(C)C)C(=O)N[C@@H](Cc2c[nH]c3ccccc23)C(=O)O1 (some centres undefined) [KAHALALIDE E]', 'nM', 4500);

Ask | Which value of IC50 has been reported for C/C=C1\NC(=O)[C@H](Cc2ccccc2)NC(=O)[C@@H](C(C)C)NC(=O)[C@@H]([C@H](C)CC)NC(=O)[C@H](NC(=O)[C@H](NC(=O)[C@H](CCCN)NC(=O)[C@H]2CCCN2C(=O)[C@H](NC(=O)[C@@H](NC(=O)[C@@H](NC(=O)[C@H](NC(=O)CCCC(C)C)C(C)C)[C@@H](C)O)C(C)C)C(C)C)[C@H](C)CC)[C@H](C)OC(=O)[C@H](C(C)C)NC1=O [KAHALALIDE F] in the records?
Reply | 220

Ask | Now consider C/C=C1\NC(=O)[C@H](Cc2ccccc2)NC(=O)C(C(C)C)NC(=O)C(C(C)C)NC(=O)[C@H](NC(=O)[C@H](NC(=O)[C@H](CCCN)NC(=O)[C@H]2CCCN2C(=O)C(NC(=O)C(NC(=O)C(NC(=O)[C@@H](CCC(=O)O)NC(=O)CCCC(O)CC(C)C)C(C)C)C(C)C)C(C)C)[C@@H](C)CC)[C@@H](C)OC(=O)C(C(C)C)NC1=O (some centres undefined) [KAHALALIDE S] and answer again.
Reply | 3550

Ask | Same again, this time with C/C=C1\NC(=O)[C@H](Cc2ccccc2)NC(=O)C(C(C)C)NC(=O)C(C(C)C)NC(=O)[C@H](NC(=O)[C@H](NC(=O)[C@H](CCCN)NC(=O)[C@H]2CCCN2C(=O)C(NC(=O)C(NC(=O)C(NC(=O)[C@@H](CCC(=O)O)NC(=O)CCCCCC(C)C)C(C)C)C(C)C)C(C)C)[C@@H](C)CC)[C@@H](C)OC(=O)C(C(C)C)NC1=O (some centres undefined) [KAHALALIDE R]
Reply | 140
